These entries and their values trace back to paper PMC3429506.

- Assay Target: LRRK2 G2019S (Homo sapiens, UniProt Q5S007, G2019S)
- Sequence (Q5S007 whole entry G2019S): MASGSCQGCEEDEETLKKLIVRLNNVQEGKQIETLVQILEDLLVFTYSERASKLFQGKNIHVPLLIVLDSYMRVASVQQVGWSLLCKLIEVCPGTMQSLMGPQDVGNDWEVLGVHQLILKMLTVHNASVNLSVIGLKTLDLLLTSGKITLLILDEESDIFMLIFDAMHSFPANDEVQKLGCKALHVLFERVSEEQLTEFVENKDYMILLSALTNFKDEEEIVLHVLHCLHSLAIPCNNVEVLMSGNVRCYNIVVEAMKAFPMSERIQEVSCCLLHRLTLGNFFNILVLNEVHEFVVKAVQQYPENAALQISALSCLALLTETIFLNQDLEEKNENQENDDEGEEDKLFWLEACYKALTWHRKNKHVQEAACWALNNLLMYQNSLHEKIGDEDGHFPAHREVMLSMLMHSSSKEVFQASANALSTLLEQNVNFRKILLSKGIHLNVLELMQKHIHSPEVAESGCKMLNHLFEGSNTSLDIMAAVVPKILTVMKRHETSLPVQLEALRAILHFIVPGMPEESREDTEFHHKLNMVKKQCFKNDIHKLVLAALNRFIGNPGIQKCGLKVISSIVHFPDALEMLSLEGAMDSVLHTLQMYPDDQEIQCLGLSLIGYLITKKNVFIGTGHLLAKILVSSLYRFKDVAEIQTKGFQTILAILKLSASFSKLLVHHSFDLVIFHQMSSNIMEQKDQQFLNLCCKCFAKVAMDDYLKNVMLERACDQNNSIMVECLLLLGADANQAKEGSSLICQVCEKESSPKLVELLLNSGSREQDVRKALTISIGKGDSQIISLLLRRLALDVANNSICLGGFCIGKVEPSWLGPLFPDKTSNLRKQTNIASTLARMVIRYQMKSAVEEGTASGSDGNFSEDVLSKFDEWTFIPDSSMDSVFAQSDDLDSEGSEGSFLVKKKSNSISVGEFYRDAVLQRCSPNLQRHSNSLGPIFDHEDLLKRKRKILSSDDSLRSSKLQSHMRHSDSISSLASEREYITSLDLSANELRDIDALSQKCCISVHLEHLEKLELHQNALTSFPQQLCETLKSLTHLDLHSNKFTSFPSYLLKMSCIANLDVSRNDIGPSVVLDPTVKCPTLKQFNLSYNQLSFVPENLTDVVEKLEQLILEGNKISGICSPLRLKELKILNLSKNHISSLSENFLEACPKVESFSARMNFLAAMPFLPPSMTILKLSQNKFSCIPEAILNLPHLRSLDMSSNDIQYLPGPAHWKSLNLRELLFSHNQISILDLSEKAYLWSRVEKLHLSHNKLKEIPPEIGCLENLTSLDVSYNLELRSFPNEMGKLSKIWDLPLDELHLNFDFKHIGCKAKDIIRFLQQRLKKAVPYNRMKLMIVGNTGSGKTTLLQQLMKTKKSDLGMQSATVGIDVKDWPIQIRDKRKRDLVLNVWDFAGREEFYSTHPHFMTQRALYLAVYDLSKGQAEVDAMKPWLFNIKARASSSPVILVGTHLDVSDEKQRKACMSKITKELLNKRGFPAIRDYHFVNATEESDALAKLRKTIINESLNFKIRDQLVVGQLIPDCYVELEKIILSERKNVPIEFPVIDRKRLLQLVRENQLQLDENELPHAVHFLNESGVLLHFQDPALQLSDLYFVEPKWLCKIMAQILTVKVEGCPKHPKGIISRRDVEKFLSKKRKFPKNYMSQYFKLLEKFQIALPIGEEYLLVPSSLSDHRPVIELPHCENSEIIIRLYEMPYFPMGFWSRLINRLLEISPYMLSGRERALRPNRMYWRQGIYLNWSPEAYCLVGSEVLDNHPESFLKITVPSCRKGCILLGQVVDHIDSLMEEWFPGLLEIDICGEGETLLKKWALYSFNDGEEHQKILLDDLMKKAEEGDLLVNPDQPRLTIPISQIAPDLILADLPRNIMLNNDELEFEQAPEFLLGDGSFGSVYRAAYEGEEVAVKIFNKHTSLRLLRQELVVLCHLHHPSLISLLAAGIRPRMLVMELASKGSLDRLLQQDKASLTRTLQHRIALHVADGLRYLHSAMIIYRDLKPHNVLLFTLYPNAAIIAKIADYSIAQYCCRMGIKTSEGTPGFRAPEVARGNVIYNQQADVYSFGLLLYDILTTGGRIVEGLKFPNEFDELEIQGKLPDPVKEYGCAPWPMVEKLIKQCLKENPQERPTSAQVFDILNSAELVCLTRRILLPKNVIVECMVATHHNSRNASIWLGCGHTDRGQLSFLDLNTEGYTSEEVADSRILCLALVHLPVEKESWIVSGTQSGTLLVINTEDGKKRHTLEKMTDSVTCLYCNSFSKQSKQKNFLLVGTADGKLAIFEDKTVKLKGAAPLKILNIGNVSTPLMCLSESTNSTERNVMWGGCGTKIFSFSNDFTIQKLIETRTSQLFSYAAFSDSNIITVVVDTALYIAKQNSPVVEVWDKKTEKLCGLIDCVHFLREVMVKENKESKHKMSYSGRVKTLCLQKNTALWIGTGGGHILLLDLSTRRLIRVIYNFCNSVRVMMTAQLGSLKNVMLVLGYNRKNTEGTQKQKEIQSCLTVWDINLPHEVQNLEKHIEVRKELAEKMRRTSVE
- Experiment: TR-FRET cellular assay for LRRK2 Ser935 phosphorylation, SH-SY5Y cells, BacMam LRRK2-GFP G2019S (incl. Tocriscreen Mini library screen and follow-up)
- Type: cell-based
- Design: This high-throughput assay utilizes cells expressing full-length human LRRK2 with a C-terminal GFP tag (LRRK2-GFP); host or cells: SH-SY5Y cells transduced with BacMam
- Run Parameters: Tocriscreen Mini library screen, 20 µM, SH-SY5Y G2019S, relative to LRRK2-IN-1 control
Response field label: string, one of Condition met (%Inhibition Initial screen strictly below 70%) or Condition not met.

In: Identify whether the compound CCc1ccc(OCc2ccccc2C(=O)Nc2ccc3nc(C)cc(N)c3c2)cc1 records %Inhibition Initial screen below 70%.
Out: Condition not met

In: Identify whether the compound O=C1C(Cl)=C(NCCN2CCOCC2)C(=O)c2ncccc21 records %Inhibition Initial screen below 70%.
Out: Condition met

In: Identify whether the compound CC(C)[C@H](CO)Nc1nc(Nc2cc(N)cc(Cl)c2)c2ncn(C(C)C)c2n1 records %Inhibition Initial screen below 70%.
Out: Condition met

In: Identify whether the compound O=C(c1ccc(Nc2nccc(-c3cc4ccccc4s3)n2)cc1)N1CCC(N2CCCC2)CC1 records %Inhibition Initial screen below 70%.
Out: Condition not met

---

- Assay Target: LRRK2 G2019S (Homo sapiens, UniProt Q5S007, G2019S)
- Experiment: TR-FRET cellular assay for LRRK2 Ser935 phosphorylation, human neural stem cells, BacMam LRRK2-GFP G2019S
- Assay type: cell-based
- Set-up: This high-throughput assay utilizes cells expressing full-length human LRRK2 with a C-terminal GFP tag (LRRK2-GFP); host or cells: U-2 OS, SH-SY5Y, HEK293T cells or human neural stem cells transduced with BacMam
- Run Parameters: 10% BacMam G2019S, 90 min, Figure 4, read-out: IC50, inhibition of G2019S Ser935 phosphorylation via TR-FRET
Observed Property: IC50
Please state the value followed by its unit.

In: Answer with the recorded IC50 for the compound listed here: COc1cc(C(=O)N2CCC(N3CCN(C)CC3)CC2)ccc1Nc1ncc2c(n1)N(C)c1ccccc1C(=O)N2C [LRRK2-IN-1]
Out: 0.03 µM

---

Please respond with reported IC50 for every item in the list.
- System: SH-SY5Y cells expressing LRRK2-GFP G2019S
- Experiment: Cytotoxicity assay (resazurin-based cell viability)
- Run Parameters: read-out: Cytotoxicity Assay IC50; same conditions as TR-FRET follow-up; one representative of two experiments

In: Answer with the recorded IC50 for the compound listed here: Cn1cc(/C=C2\C(=O)Nc3cccnc32)c2ccccc21
Out: > 20 µM

In: Answer with the recorded IC50 for the compound listed here: O=C(O)/C=C\C(=O)O.O=C1/C(=C/c2ccccc2)C[C@@]2(O)[C@H]3Cc4ccc(O)c5c4[C@@]2(CCN3CC2CC2)[C@H]1O5 [BNTX maleate]
Out: > 20 µM

In: Answer with the recorded IC50 for the compound listed here: Cc1ccc(S(=O)(=O)/C=C/C#N)cc1
Out: 20 µM

In: Answer with the recorded IC50 for the compound listed here: NC(=O)Nc1sc(-c2ccc(F)cc2)cc1C(N)=O
Out: > 20 µM

In: Answer with the recorded IC50 for the compound listed here: O=C1NC(=O)c2c1c1c3ccccc3n3c1c1c2c2ccccc2n1C1CCC3O1
Out: > 20 µM

In: Answer with the recorded IC50 for the compound listed here: O=C1C(SCCO)=C(SCCO)C(=O)c2ccccc21
Out: 7.8 µM

---

- Experiment: in vitro
- Run Parameters: human
Observed Property: IC50

In: Answer with the recorded IC50 for the molecule listed here: O=Nc1c(-c2c(O)[nH]c3ccccc23)[nH]c2ccccc12
Out: > 20 µM

---

- Assay Target: LRRK2 wild-type (Homo sapiens, UniProt Q5S007)
- Sequence (Q5S007 whole entry): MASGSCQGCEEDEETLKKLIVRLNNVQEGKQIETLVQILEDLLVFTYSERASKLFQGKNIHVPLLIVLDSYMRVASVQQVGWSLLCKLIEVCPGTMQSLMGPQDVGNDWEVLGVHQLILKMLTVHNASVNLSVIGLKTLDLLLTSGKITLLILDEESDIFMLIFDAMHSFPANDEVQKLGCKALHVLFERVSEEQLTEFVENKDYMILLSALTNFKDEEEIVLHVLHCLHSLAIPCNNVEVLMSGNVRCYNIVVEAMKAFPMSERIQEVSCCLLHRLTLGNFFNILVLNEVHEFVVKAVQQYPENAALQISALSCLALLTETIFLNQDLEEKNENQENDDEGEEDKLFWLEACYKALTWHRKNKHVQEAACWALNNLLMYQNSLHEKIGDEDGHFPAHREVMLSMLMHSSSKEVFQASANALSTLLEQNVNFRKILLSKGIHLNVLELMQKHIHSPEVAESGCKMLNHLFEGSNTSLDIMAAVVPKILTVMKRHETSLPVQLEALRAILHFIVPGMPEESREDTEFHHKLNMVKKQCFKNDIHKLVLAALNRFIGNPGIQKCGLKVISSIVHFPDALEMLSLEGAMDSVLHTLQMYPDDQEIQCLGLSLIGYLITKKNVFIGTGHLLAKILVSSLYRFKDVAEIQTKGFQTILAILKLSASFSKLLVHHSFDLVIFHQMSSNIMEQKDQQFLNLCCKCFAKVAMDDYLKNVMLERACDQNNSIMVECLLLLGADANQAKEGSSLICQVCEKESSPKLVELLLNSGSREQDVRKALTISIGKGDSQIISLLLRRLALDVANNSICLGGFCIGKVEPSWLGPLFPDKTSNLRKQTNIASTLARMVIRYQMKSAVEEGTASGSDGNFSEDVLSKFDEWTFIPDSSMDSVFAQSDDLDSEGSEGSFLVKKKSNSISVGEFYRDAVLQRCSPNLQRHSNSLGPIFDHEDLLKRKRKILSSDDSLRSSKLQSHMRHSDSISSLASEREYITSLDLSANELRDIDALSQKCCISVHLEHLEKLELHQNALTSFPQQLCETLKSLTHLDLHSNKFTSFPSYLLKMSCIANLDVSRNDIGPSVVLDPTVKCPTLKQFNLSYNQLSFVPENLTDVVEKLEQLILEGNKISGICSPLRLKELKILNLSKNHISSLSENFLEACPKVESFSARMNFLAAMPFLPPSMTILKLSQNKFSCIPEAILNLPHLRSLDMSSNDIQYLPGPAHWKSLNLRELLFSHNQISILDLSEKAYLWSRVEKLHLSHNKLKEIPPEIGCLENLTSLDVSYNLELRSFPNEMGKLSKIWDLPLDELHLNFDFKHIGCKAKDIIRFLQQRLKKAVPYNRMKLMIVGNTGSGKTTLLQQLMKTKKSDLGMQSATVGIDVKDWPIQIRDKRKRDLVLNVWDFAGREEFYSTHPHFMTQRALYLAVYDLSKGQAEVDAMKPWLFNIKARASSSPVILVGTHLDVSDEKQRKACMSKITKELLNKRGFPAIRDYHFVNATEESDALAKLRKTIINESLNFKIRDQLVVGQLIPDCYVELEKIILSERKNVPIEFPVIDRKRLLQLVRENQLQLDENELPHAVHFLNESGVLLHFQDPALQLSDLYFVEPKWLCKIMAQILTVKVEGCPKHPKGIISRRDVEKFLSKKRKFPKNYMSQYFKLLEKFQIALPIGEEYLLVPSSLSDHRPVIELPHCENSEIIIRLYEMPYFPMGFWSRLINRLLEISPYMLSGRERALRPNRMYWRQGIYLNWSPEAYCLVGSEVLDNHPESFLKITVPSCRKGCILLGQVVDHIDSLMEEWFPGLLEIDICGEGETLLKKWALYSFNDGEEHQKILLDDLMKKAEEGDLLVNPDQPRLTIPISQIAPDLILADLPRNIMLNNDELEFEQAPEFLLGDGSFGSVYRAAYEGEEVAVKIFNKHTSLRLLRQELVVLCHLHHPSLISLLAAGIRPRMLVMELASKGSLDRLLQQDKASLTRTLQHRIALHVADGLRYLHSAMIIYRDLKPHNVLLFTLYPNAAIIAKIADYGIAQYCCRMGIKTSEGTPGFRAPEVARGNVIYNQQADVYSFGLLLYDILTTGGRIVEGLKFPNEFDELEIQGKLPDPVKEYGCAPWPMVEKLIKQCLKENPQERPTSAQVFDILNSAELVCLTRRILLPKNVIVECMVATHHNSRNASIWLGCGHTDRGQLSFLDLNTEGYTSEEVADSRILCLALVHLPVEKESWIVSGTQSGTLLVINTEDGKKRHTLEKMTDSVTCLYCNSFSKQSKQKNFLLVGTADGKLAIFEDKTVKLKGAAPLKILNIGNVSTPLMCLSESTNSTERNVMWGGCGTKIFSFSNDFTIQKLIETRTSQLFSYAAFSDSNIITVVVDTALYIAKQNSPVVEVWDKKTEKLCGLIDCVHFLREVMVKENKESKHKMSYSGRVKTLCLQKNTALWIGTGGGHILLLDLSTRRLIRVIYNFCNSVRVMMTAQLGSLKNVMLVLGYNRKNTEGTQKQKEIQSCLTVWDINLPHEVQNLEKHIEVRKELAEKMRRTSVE
- Experiment: TR-FRET cellular assay for LRRK2 Ser935 phosphorylation, SH-SY5Y cells, BacMam LRRK2-GFP wild-type
- Format: cell-based
- Design: This high-throughput assay utilizes cells expressing full-length human LRRK2 with a C-terminal GFP tag (LRRK2-GFP); host or cells: SH-SY5Y cells transduced with BacMam
- Run Parameters: WT, +/- SD, three independent experiments, * = partial inhibition, read-out: IC50, TR-FRET cell-based assay for Ser935 phosphorylation of LRRK2
Observed Property: IC50

In: Look up and report IC50, with LRRK2 wild-type (Homo sapiens, UniProt Q5S007) as system, for Cc1cncc2cccc(S(=O)(=O)N3CCCNC[C@@H]3C)c12 [H-1152]
Out: 1660 nM

In: Look up and report IC50, with LRRK2 wild-type (Homo sapiens, UniProt Q5S007) as system, for O=Nc1c(-c2c(O)[nH]c3ccccc23)[nH]c2ccccc12 [Indirubin-3-monoxime, Indirubin-3′-monoxime]
Out: > 10000 nM

In: Look up and report IC50, with LRRK2 wild-type (Homo sapiens, UniProt Q5S007) as system, for O=S(=O)(NCCNC/C=C/c1ccc(Br)cc1)c1cccc2cnccc12 [H-89]
Out: > 20000 nM

In: Look up and report IC50, with LRRK2 wild-type (Homo sapiens, UniProt Q5S007) as system, for COc1cc(C(=O)N2CCC(N3CCN(C)CC3)CC2)ccc1Nc1ncc2c(n1)N(C)c1ccccc1C(=O)N2C [LRRK2-IN-1]
Out: 200 nM

In: Look up and report IC50, with LRRK2 wild-type (Homo sapiens, UniProt Q5S007) as system, for O=C1Nc2ccc(I)cc2/C1=C/c1cc(Br)c(O)c(Br)c1 [GW5074]
Out: > 20000 nM

---

- Assay Target: LRRK2 G2019S (Homo sapiens, UniProt Q5S007, G2019S)
- Experiment: TR-FRET cellular assay for LRRK2 Ser935 phosphorylation, SH-SY5Y cells, BacMam LRRK2-GFP G2019S (incl. Tocriscreen Mini library screen and follow-up)
- Type: cell-based
- Design: This high-throughput assay utilizes cells expressing full-length human LRRK2 with a C-terminal GFP tag (LRRK2-GFP); host or cells: SH-SY5Y cells transduced with BacMam
- Run Parameters: cryopreserved pretransduced SH-SY5Y cells, 25% BacMam G2019S, 90 min, Figure S3; read-out: IC50 using cryopreserved cells
Observed Property: IC50

In: Answer with the recorded IC50 for the molecule listed here: COc1cc(C(=O)N2CCC(N3CCN(C)CC3)CC2)ccc1Nc1ncc2c(n1)N(C)c1ccccc1C(=O)N2C [LRRK2-IN-1]
Out: ~40 nM

---

- Assay Target: LRRK2 G2019S (Homo sapiens, UniProt Q5S007, G2019S)
- Experiment: TR-FRET cellular assay for LRRK2 Ser935 phosphorylation, SH-SY5Y cells, BacMam LRRK2-GFP G2019S (incl. Tocriscreen Mini library screen and follow-up)
- Type: cell-based
- Design: This high-throughput assay utilizes cells expressing full-length human LRRK2 with a C-terminal GFP tag (LRRK2-GFP); host or cells: SH-SY5Y cells transduced with BacMam
- Run Parameters: dose-response follow-up, SH-SY5Y G2019S, three independent experiments; read-out: Cellular TR-FRET Assay IC50 +/-SD
- Protocol: U-2 OS cells are maintained in growth medium (McCoy’s 5A supplemented with 10% dialyzed FBS (dFBS), 10 mM HEPES, 0.1 mM NEAA, 1 mM Sodium Pyruvate, and 100 U/mL Penicillin/100 µg/mL Streptomycin). […] Transduced cells in the 384-well assay plate were incubated with indicated inhibitors (5X, 5 µL/well) for 60 to 90 minutes. […] Z′-factor values were calculated as: Z′-factor = 1 - [(3 × stdevno virus +3 × stdevmaxvirus)/(avgmaxvirus – avgno-virus)]. […]
Please respond with reported pIC50 for every item in the list.
pIC50 is defined as minus the log10 of a concentration measured in mol/L.

In: Answer with the recorded pIC50 for the molecule listed here: CC(C)(C)c1ccc(S(=O)(=O)/C=C/C#N)cc1 [Bay 11-7085]
Out: 5.28

In: Answer with the recorded pIC50 for the molecule listed here: COc1cc(C(=O)N2CCC(N3CCN(C)CC3)CC2)ccc1Nc1ncc2c(n1)N(C)c1ccccc1C(=O)N2C [LRRK2-IN-1]
Out: 7.15

In: Answer with the recorded pIC50 for the molecule listed here: O=Nc1c(-c2c(O)[nH]c3ccccc23)[nH]c2ccccc12 [Indirubin-3-monoxime, Indirubin-3′-monoxime]
Out: 5.36

In: Answer with the recorded pIC50 for the molecule listed here: Oc1c2ccccc2c2c3c(cccc13)N=N2 [SP 600125]
Out: 6.00

In: Answer with the recorded pIC50 for the molecule listed here: CC(C)[C@H](CO)Nc1nc(Nc2cc(N)cc(Cl)c2)c2ncn(C(C)C)c2n1 [Aminopurvalanol A]
Out: 5.85

In: Answer with the recorded pIC50 for the molecule listed here: O=C1NC(=O)c2c1c1c3ccccc3n3c1c1c2c2ccccc2n1C1CCC3O1 [SB 218078]
Out: 5.02

In: Answer with the recorded pIC50 for the molecule listed here: [O-][S+](c1ccccc1)c1ccc2nnnn2n1 (stereo not drawn) [Ro 106-9920]
Out: 5.12

In: Answer with the recorded pIC50 for the molecule listed here: NC(=O)Nc1sc(-c2ccc(F)cc2)cc1C(N)=O [TPCA-1]
Out: 7.00

In: Answer with the recorded pIC50 for the molecule listed here: O=C1C(Cl)=C(NCCN2CCOCC2)C(=O)c2ncccc21 [NSC 663284]
Out: 5.24

In: Answer with the recorded pIC50 for the molecule listed here: Cc1ccc(S(=O)(=O)/C=C/C#N)cc1 [Bay 11-7821]
Out: 5.40

In: Answer with the recorded pIC50 for the molecule listed here: O=C(O)/C=C\C(=O)O.O=C1/C(=C/c2ccccc2)C[C@@]2(O)[C@H]3Cc4ccc(O)c5c4[C@@]2(CCN3CC2CC2)[C@H]1O5 [BNTX maleate]
Out: 5.40

In: Answer with the recorded pIC50 for the molecule listed here: CCc1ccc(OCc2ccccc2C(=O)Nc2ccc3nc(C)cc(N)c3c2)cc1 [JTC 801]
Out: 5.02

In: Answer with the recorded pIC50 for the molecule listed here: Cn1cc(/C=C2\C(=O)Nc3cccnc32)c2ccccc21 [GW 441756]
Out: 5.66

In: Answer with the recorded pIC50 for the molecule listed here: O=C1C(SCCO)=C(SCCO)C(=O)c2ccccc21 [NSC 95397]
Out: 5.89

In: Answer with the recorded pIC50 for the molecule listed here: O=C(c1ccc(Nc2nccc(-c3cc4ccccc4s3)n2)cc1)N1CCC(N2CCCC2)CC1 [IKK 16]
Out: 5.89
